// provenance: patent US20060257938A1

Measured DR/DR SA by item
- test-method-notes: Probe fluorescence ratio response to stearic acid relative to ADIFAB2
- Format: binding
- condition-set: response relative to ADIFAB2
measured-property: DR/DR SA

molecule="14I 18V 31W 73I 117V 72A (protein, listed as Rattus norvegicus, PEPTIDE (1)...(131) wild-type rat intestinal fatty acid binding protein) AFDGTWKVDRNENIEKFVEKMGINVVKRKLWAHDNLKLTITQEGNKFTVKESSNFRNIDVVFELGVDFAYSAIDGTELTGTWTMEGNKLVGKFKRVDNGKELIAVREISGNELIQTVTYEGVEAKRIFKKE" experimental_result=0.283
molecule="72A 73W 74E (protein, listed as Rattus norvegicus, PEPTIDE (1)...(131) wild-type rat intestinal fatty acid binding protein) AFDGTWKVDRNENYEKFMEKMGINVVKRKLGAHDNLKLTITQEGNKFTVKESSNFRNIDVVFELGVDFAYSAWEGTELTGTWTMEGNKLVGKFKRVDNGKELIAVREISGNELIQTYTYEGVEAKRIFKKE" experimental_result=1.289
molecule="38I 74F 72A (protein, listed as Rattus norvegicus, PEPTIDE (1)...(131) wild-type rat intestinal fatty acid binding protein) AFDGTWKVDRNENYEKFMEKMGINVVKRKLGAHDNLKITITQEGNKFTVKESSNFRNIDVVFELGVDFAYSAAFGTELTGTWTMEGNKLVGKFKRVDNGKELIAVREISGNELIQTYTYEGVEAKRIFKKE" experimental_result=0.503
molecule="18L 55L 73I 72A (protein, listed as Rattus norvegicus, PEPTIDE (1)...(131) wild-type rat intestinal fatty acid binding protein) AFDGTWKVDRNENYEKFLEKMGINVVKRKLGAHDNLKLTITQEGNKFTVKESSNLRNIDVVFELGVDFAYSAIDGTELTGTWTMEGNKLVGKFKRVDNGKELIAVREISGNELIQTYTYEGVEAKRIFKKE" experimental_result=0.423
molecule="73N 72A 74F (protein, listed as Rattus norvegicus, PEPTIDE (1)...(131) wild-type rat intestinal fatty acid binding protein) AFDGTWKVDRNENYEKFMEKMGINVVKRKLGAHDNLKLTITQEGNKFTVKESSNFRNIDVVFELGVDFAYSANFGTELTGTWTMEGNKLVGKFKRVDNGKELIAVREISGNELIQTYTYEGVEAKRIFKKE" experimental_result=0.271
molecule="72S 73Q 74A (protein, listed as Rattus norvegicus, PEPTIDE (1)...(131) wild-type rat intestinal fatty acid binding protein) AFDGTWKVDRNENYEKFMEKMGINVVKRKLGAHDNLKLTITQEGNKFTVKESSNFRNIDVVFELGVDFAYSSQAGTELTGTWTMEGNKLVGKFKRVDNGKELIAVREISGNELIQTYTYEGVEAKRIFKKE" experimental_result=1.311
molecule="73I 72A (protein, listed as Rattus norvegicus, PEPTIDE (1)...(131) wild-type rat intestinal fatty acid binding protein) AFDGTWKVDRNENYEKFMEKMGINVVKRKLGAHDNLKLTITQEGNKFTVKESSNFRNIDVVFELGVDFAYSAIDGTELTGTWTMEGNKLVGKFKRVDNGKELIAVREISGNELIQTYTYEGVEAKRIFKKE" experimental_result=0.242
molecule="18L 73F 117G 72A (protein, listed as Rattus norvegicus, PEPTIDE (1)...(131) wild-type rat intestinal fatty acid binding protein) AFDGTWKVDRNENYEKFLEKMGINVVKRKLGAHDNLKLTITQEGNKFTVKESSNFRNIDVVFELGVDFAYSAFDGTELTGTWTMEGNKLVGKFKRVDNGKELIAVREISGNELIQTGTYEGVEAKRIFKKE" experimental_result=0.663
molecule="18V 31A 73W 72A (protein, listed as Rattus norvegicus, PEPTIDE (1)...(131) wild-type rat intestinal fatty acid binding protein) AFDGTWKVDRNENYEKFVEKMGINVVKRKLAAHDNLKLTITQEGNKFTVKESSNFRNIDVVFELGVDFAYSAWDGTELTGTWTMEGNKLVGKFKRVDNGKELIAVREISGNELIQTYTYEGVEAKRIFKKE" experimental_result=0.722
molecule="18V 31Y 55I 73G 72A (protein, listed as Rattus norvegicus, PEPTIDE (1)...(131) wild-type rat intestinal fatty acid binding protein) AFDGTWKVDRNENYEKFVEKMGINVVKRKLYAHDNLKLTITQEGNKFTVKESSNIRNIDVVFELGVDFAYSAGDGTELTGTWTMEGNKLVGKFKRVDNGKELIAVREISGNELIQTYTYEGVEAKRIFKKE" experimental_result=−0.094
